# protocol-details: Partition coefficient (logP)
# Format: physicochemical
# measurement-parameters: octanol/water
Form field: logP (one value per entry).
// keep it numeric: no unit symbol after the value

| compound | logP |
| --- | --- |
| O=C1NC2(c3ccccc3)CCCCCN1C2=O (stereo unspecified) | 2.51 |
| CCCCC1(c2ccccc2)NC(=O)N(C)C1=O (stereo unspecified) | 3.01 |
| CN1C(=O)OC(C)(C)C1=O [TRIMETHADIONE] | -0.37 |
| CCCC1(c2ccccc2)NC(=O)NC1=O (stereo unspecified) | 1.96 |
| O=C1NC2(c3ccccc3)CCCCN1C2=O (stereo unspecified) | 2.01 |
| CCCCCC1(c2ccccc2)NC(=O)NC1=O (stereo unspecified) | 2.96 |
| CCCCC1(c2ccccc2)NC(=O)NC1=O (stereo unspecified) | 2.46 |
| O=C1O[C@@]2(c3ccccc3)CCCCN1C2=O | 2.65 |

Ask: Fill in: logP of O=C1OC2(c3ccccc3)CCCCCN1C2=O (stereo unspecified) is ___
Result: 3.05

Ask: Try the compound CCC1(c2ccccc2)OC(=O)N(C)C1=O (stereo unspecified)
Result: 2.65

Ask: Try the compound O=C1NC(=O)C(c2ccccc2)(c2ccccc2)N1 [PHENYTOIN]
Result: 2.46

====

# experimental-target: Sodium channel alpha subunits; brain (Types I, II, III) (Rattus norvegicus, UniProt P04775+P04774+P08104)
# protocol-details: Inhibition of binding to sodium channel of rat cerebral cortex
# Type: tissue-based
Rule: IC50 below 200 µM gives Y. Equal to or above 200 µM gives N.

Example entries and their recorded answers appear below.
| compound | assigned-label |
| --- | --- |
| CN1C(=O)OC(C)(C)C1=O | N |
| CCCC1(c2ccccc2)NC(=O)NC1=O (stereo not drawn) | Y |
| O=C1OC2(c3ccccc3)CCCCCN1C2=O (stereo not drawn) | Y |

Ask: Does the reported IC50 of the following compound sit strictly below 200 µM? CCCCCC1(c2ccccc2)NC(=O)NC1=O (stereo not drawn)
Result: Y

Ask: Try the compound O=C1NC2(c3ccccc3)CCCCCN1C2=O (stereo not drawn)
Result: N

Ask: Try the compound O=C1NC2(c3ccccc3)CCCCN1C2=O (stereo not drawn)
Result: N

Ask: Try the compound CCCCC1(c2ccccc2)NC(=O)N(C)C1=O (stereo not drawn)
Result: N

Ask: Try the compound CCCCC1(c2ccccc2)NC(=O)NC1=O (stereo not drawn)
Result: Y

====

Form field: Activity (one value per entry).
# Tested on: Mus musculus
# protocol-details: Number of animals protected or toxic compared to number tested rotarod test in Phase-I by intraperitoneal administration in mice; 4/4
# Format: functional

| compound | Activity |
| --- | --- |
| NC(=O)C1(c2ccccc2)CCCCCNC1=O (centres undefined) | 4 |
| CCCC1(c2ccccc2)NC(=O)NC1=O (centres undefined) | 4 |

Turning now to a further compound:
Ask: Fill in: Activity of O=C1NC2(c3ccccc3)CCCCCN1C2=O (centres undefined) is ___
Result: 4
